Target: Chromo domain-containing protein 1 (Saccharomyces cerevisiae (strain ATCC 204508 / S288c) (Baker's yeast))
Test: ScCHD-1 Enzyme Inhibition Assay; further: in the data most compounds retested in dose-response had high values
Assay type: functional
Design: scale not given: direction of the effect not stated beside the values
Conditions: 30 µM
Parameter: Percent Effect
Write the quantity with the unit trailing the number.

// below: answered compounds
Compound: O=C(NCC1CC1)[C@H]1C[C@H]2OCC[C@H]2N(CCc2ccccc2)C1
Percent Effect: -1.91%
//
Compound: Cc1cccc(-c2nc(CN(Cc3cccs3)CC3CCCO3)no2)c1 (stereo unspecified)
Percent Effect: -15.2%
//
Compound: Cc1ncc(CNCC2CCCN2c2cccnn2)s1 (stereo unspecified)
Percent Effect: -17.8%
//
Compound: Cc1nc(CNCC2CCCN2c2cccnn2)no1 (stereo unspecified)
Percent Effect: -23.1%
//
Compound: Cc1ccc(CN2CCCC23CCN(S(=O)(=O)c2ccccc2)C3)o1 (stereo unspecified)
Percent Effect: 2.48%

Input: Request the reported Percent Effect associated with Cc1ccc(C)c(NC(=O)N(C)Cc2cnn(C)c2)c1
Output: -4.13%

Input: Here is the next compound: Cc1cnn(CC2CCCN2C(=O)c2cnc3n[nH]c(C)c3c2)c1 (stereo unspecified)
Output: -32.5%

* * *

Target: AMP-activated protein kinase, AMPK (Homo sapiens) (UniProt P54646+O43741+P54619+Q9UGJ0+Q9Y478+Q13131+Q9UGI9)
Assay: AMP-dependent Kinase enzyme assay. An in vitro enzyme assay that detects ADP turnover that is directly proportional to AMPK activity. This uses naive AMPK that is activated during the assay with MK-8722
Assay type: functional
Parameters: scale not given: direction of the effect not stated beside the values
Conditions: 30 µM
Overview of recorded Percent Effect for various compounds

// below: answered compounds
Compound: CCCNC(=O)CNc1ccc(C(=O)N2CCCCC2C)cc1C (stereo not given)
Parameter: Percent Effect
Result: 1.99%
//
Compound: COCCN1CC[C@@H](O)[C@@H]1Cc1ccccc1
Parameter: Percent Effect
Result: 2.24%
//
Compound: Cc1cc(C)c(CNC(=O)NCc2ccc3c(c2)CCC3)c(=O)[nH]1
Parameter: Percent Effect
Result: -2.73%

Input: Request the reported Percent Effect associated with CS(=O)(=O)N1CCC(C(=O)NCCNc2ncccn2)CC1
Output: 2.54%

Input: Here is the next compound: COc1c(C)cnc(CN2CCCCC2Cn2nc(C)nc2C)c1C (stereo not given)
Output: -1.73%

Input: Here is the next compound: CCN1CC2(CC1=O)CN(Cc1ccco1)CCN(C(=O)N(C)C)C2 (stereo not given)
Output: 1.96%

Input: Here is the next compound: CC(CN1CCN(C)CC1)NC(=O)c1cc(Cl)c2c(c1)OCO2 (stereo not given)
Output: 140%

Input: Here is the next compound: c1ccc(Cn2ccnc2CN2CCOC(Cn3cccn3)C2)cc1 (stereo not given)
Output: 9.54%

* * *

Tested on: Trypanosoma cruzi
Assay: Trypanosoma cruzi phosphomannomutase and mannose-1-phosphate guanylyltransferase assay
Format: functional
Set-up: scale not given: direction of the effect not stated beside the values
Conditions: 10 µM
Overview of recorded Percent Effect for various compounds
Quick reminder: number only, in %, skip the unit.

// below: answered compounds
Compound: CNC(=O)CC1CCN(Cc2nc(-c3ccc(SC)cc3)oc2C)CC1
Parameter: Percent Effect
Unit abbreviation: %
Number: -2.7
--
Compound: NS(=O)(=O)CCNC(=O)c1nnn(-c2ccccc2)c1C1CC1
Parameter: Percent Effect
Unit abbreviation: %
Number: -8.4
--
Compound: CC(=O)Nc1nc(CN2CCCCC2Cn2cccn2)cs1 (configuration not stated)
Parameter: Percent Effect
Unit abbreviation: %
Number: -0.0974

Input: Request: Percent Effect, test system Trypanosoma cruzi, entry COc1ccc(OC)c(C2C3=C(COC3=O)Nc3[nH]nc(C)c32)c1 (configuration not stated)
Output: 5.11

Input: Here is the next compound: CCS(=O)(=O)N1C[C@H]2CN(Cc3cccnc3)C(=O)[C@H]2C1
Output: -6.25

Input: Here is the next compound: CC(O)CN1CCN(C(=O)c2ccc(N(C)C)nc2)CC1 (configuration not stated)
Output: 4.68

Input: Here is the next compound: Cc1ccc(N2CCCC(NCc3cscn3)C2)nn1 (configuration not stated)
Output: -1.04

Input: Here is the next compound: C=C(C)C(=O)N1CCC(C(=O)c2cc(C)cnc2N)CC1
Output: 7.09

Input: Here is the next compound: O=C(COCc1nc(-c2ccncc2)no1)N1CCCC1
Output: 4.42

Input: Here is the next compound: COc1ccccc1CN1C(=O)O[C@@H]2CN(c3nccs3)C[C@@H]21
Output: -5.75

Input: Here is the next compound: CCOCCCNC(=O)c1cn(CC)nc1C
Output: 0.982

Input: Here is the next compound: Cc1csc(N2CCN(C(=O)CCc3ccccn3)CC2)n1
Output: 3.87

* * *

Species: Homo sapiens
Assay: To identify inhibition of the IFN signalling (Jak-Stat) pathway via expression of an eGFP reporter gene under the control of an IFN-stimulated response element (ISRE) containing MxA promoter.
Type: functional
Parameters: scale not given: direction of the effect not stated beside the values
Conditions: 30 µM
Parameter: Percent Effect (%)
Quick reminder: number only, in %, skip the unit.

Compound: COc1cnc(C2(O)CCN(C(=O)c3ccncc3)CC2)c(OC)n1
Percent Effect [%]: 8.85

Input: Request the reported Percent Effect associated with Cn1cnnc1C1CCCN(C(=O)NCCc2ccccc2F)C1 (stereo unspecified)
Output: 11.1

Input: Here is the next compound: CCC(=O)NCC(=O)NCc1cc(Br)ccc1OC(F)F
Output: -3.97

* * *

Tested on: Trypanosoma cruzi
Assay: Trypanosoma cruzi phosphomannomutase and mannose-1-phosphate guanylyltransferase assay
Format: functional
Set-up: scale not given: direction of the effect not stated beside the values
Conditions: 10 µM
Parameter: Percent Effect

Compound: COc1ccc(CN2CCOC3(CCCN(c4nnc(C)o4)C3)C2)cc1 (stereo unspecified)
Tested on: Trypanosoma cruzi
Percent Effect: 5.75%

Input: Request the reported Percent Effect associated with Cc1cc(-c2nnc(SCC(=O)O)n2C(C)c2ccccc2)nn1C (stereo unspecified)
Output: 6.32%

Input: Here is the next compound: CCn1cnnc1CNC(=O)N1CCN(c2cccc(OC)c2)CC1
Output: -3.75%

Input: Here is the next compound: COc1ccc(CN(C)CC2CCCN2c2cccnn2)cc1F (stereo unspecified)
Output: -2.25%

Input: Here is the next compound: CCN(CC)CC(=O)NCCc1csc(N2CCCC2)n1
Output: -2.24%

Input: Here is the next compound: CS(=O)(=O)c1ccc(CNC2CCCN(c3cccnn3)C2)cc1 (stereo unspecified)
Output: 0.686%

Input: Here is the next compound: Cc1cc(C(=O)N2CCCC2c2nnc3n2CCCCC3)no1 (stereo unspecified)
Output: 0.291%

Input: Here is the next compound: CC(C)CC(=O)N1CCN(C(=O)N(C)C)CC2(CC(=O)N(C)C2)C1 (stereo unspecified)
Output: 6.25%

Input: Here is the next compound: Cc1ncc(CN(C)C2CCCN(Cc3noc(C4CC4)n3)C2)s1 (stereo unspecified)
Output: 7.52%

Input: Here is the next compound: Cc1nccc(-c2cccc(NCC(=O)N3CCNC3=O)c2)n1
Output: 6.82%

Input: Here is the next compound: Cc1cnn(CC2CCCCN2Cc2nc(N)c3ccccc3n2)c1 (stereo unspecified)
Output: 8.78%

* * *

Species: Homo sapiens
Experiment: To identify inhibition of the IFN signalling (Jak-Stat) pathway via expression of an eGFP reporter gene under the control of an IFN-stimulated response element (ISRE) containing MxA promoter.
Type: functional
Parameters: scale not given: direction of the effect not stated beside the values
Conditions: 30 µM
Parameter: Percent Effect

// below: answered molecules
Molecule: CCn1cnnc1C1CCN(C(=O)c2ccc(Cl)s2)CC1
Percent Effect: -19.1%

Molecule: c1csc(-c2nc(CNC3CCc4ncnn4C3)co2)c1 (configuration not stated)
Percent Effect: 20.4%

Input: Request the reported Percent Effect associated with O=S1(=O)C[C@@H]2[C@H](C1)N(Cc1ncc[nH]1)CCN2CC1CC1
Output: 1.15%

Input: Here is the next molecule: Cc1cnn(CCNCc2cccnc2)c1
Output: 16.9%

Input: Here is the next molecule: CC(=O)N(Cc1ncc(C)o1)C1CCN(CCNC2CCCCC2)C1 (configuration not stated)
Output: 18.4%

Input: Here is the next molecule: CC(=O)N1CCC(Oc2ccc(Cl)cn2)CC1
Output: 18.8%

Input: Here is the next molecule: CCO[C@@H]1CO[C@@]2(CCCN(C(=O)c3ccc(OC)c(F)c3)C2)C1
Output: 6.86%

Input: Here is the next molecule: CCOCCCC(=O)NCCC(=O)N1CCN(c2ccccn2)CC1
Output: 2.43%

Input: Here is the next molecule: OCCn1cc(CN2CCN(CCOCC(F)(F)F)CC2)cn1
Output: 6.37%

Input: Here is the next molecule: CCn1ncc2c1C(COCC1CC1)CN(C(=O)c1cccs1)C2 (configuration not stated)
Output: 21.1%

Input: Here is the next molecule: Cc1nc(C)n(CC2CCCCN2CCS(C)(=O)=O)n1 (configuration not stated)
Output: 8.2%

Input: Here is the next molecule: Cc1cc(NC(=O)CCc2ccsc2)n(C)n1
Output: -3.97%
